Values compiled from paper PMC4336329.

Target: human ether-à-go-go-related gene (hERG) potassium channel (human, UniProt Q12809)
Sequence (Q12809 whole entry, looked up): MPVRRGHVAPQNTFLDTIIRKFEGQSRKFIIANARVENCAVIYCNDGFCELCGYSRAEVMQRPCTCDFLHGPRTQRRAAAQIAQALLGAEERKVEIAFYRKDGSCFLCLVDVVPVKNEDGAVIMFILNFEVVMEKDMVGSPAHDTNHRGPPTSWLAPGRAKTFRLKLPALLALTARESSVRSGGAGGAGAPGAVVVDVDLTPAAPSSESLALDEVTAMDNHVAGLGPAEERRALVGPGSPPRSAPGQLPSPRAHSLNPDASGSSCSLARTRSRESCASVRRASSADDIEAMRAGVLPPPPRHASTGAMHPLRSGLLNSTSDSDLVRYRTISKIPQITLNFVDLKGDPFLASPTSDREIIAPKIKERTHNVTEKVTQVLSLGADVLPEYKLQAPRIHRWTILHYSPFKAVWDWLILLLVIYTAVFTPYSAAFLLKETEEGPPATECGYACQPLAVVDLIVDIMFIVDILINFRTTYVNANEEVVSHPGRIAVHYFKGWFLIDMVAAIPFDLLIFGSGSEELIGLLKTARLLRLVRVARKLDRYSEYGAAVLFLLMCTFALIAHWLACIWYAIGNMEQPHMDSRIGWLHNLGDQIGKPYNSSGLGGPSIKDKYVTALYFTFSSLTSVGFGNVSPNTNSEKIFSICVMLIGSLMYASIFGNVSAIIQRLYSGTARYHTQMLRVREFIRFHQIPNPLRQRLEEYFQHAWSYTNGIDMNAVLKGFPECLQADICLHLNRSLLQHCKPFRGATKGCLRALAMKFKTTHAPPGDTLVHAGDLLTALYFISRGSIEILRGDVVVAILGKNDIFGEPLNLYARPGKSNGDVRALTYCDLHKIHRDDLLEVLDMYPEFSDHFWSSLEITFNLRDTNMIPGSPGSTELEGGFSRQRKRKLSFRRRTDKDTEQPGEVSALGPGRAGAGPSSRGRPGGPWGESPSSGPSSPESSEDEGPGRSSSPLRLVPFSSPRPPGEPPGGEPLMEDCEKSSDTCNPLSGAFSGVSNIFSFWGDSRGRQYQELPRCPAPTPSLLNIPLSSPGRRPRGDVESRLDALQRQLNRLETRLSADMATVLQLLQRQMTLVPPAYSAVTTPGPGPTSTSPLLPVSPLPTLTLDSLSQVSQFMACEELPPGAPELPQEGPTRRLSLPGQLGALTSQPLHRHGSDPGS
Experiment: primary screen, population patch clamp on CHO cells stably expressing hERG; higher = less effect of the substance
Description: Briefly, Chinese hamster ovary (CHO) cells stably expressing the hERG channel were dislodged from tissue culture flasks and dispensed into PPC plates. […] Small molecule effects on hERG current density were quantified by […].
Screen size: about 310,000 compounds; about 2,200 (0.71%) showed an effect of 50% or more. Effects have a minus sign here. Only a selection was taken, and strong results are over-represented in it overall.
Parameter Measured: hERG current change (%, negative = inhibition) at 1uM (%)
Write down the numeric answer in % and omit the unit.

Query block: I'm curious: which hERG current change (%, negative = inhibition) at 1uM was measured for CCCOc1ccc(/C=c2\sc3nc(-c4ccco4)nn3c2=O)cc1OCC tested on human ether-à-go-go-related gene (hERG) potassium channel (human, UniProt Q12809)?
Result block: 5.32

Query block: I'm curious: which hERG current change (%, negative = inhibition) at 1uM was measured for CCN(CC)CCNS(=O)(=O)c1ccc2[nH]cc(C(=O)O)c(=O)c2c1 tested on human ether-à-go-go-related gene (hERG) potassium channel (human, UniProt Q12809)?
Result block: 10.9

Query block: I'm curious: which hERG current change (%, negative = inhibition) at 1uM was measured for O=C(Nc1cccc(O)c1)c1ccc(C(=O)c2ccccc2)o1 tested on human ether-à-go-go-related gene (hERG) potassium channel (human, UniProt Q12809)?
Result block: -1.55

Query block: I'm curious: which hERG current change (%, negative = inhibition) at 1uM was measured for CCC1CCCCN1C(=O)Nc1cc(Cl)ccc1OC (centres unmarked) tested on human ether-à-go-go-related gene (hERG) potassium channel (human, UniProt Q12809)?
Result block: 15.2

Query block: I'm curious: which hERG current change (%, negative = inhibition) at 1uM was measured for CCOC(=O)c1c(C)[nH]c(N=Nc2cccc(OC)c2)c1C tested on human ether-à-go-go-related gene (hERG) potassium channel (human, UniProt Q12809)?
Result block: 6.77

Query block: I'm curious: which hERG current change (%, negative = inhibition) at 1uM was measured for N#Cc1ccc(CN2CCN(C(=O)c3ccc(S(=O)(=O)N4CCCCCC4)cc3)CC2)cc1 tested on human ether-à-go-go-related gene (hERG) potassium channel (human, UniProt Q12809)?
Result block: -5.24

Query block: I'm curious: which hERG current change (%, negative = inhibition) at 1uM was measured for Cc1ccc2c(c1)C1CN(C)CCC1N2C(=O)c1ccccc1NS(=O)(=O)c1ccc(F)cc1 (centres unmarked) tested on human ether-à-go-go-related gene (hERG) potassium channel (human, UniProt Q12809)?
Result block: 11.8

Query block: I'm curious: which hERG current change (%, negative = inhibition) at 1uM was measured for O=C(CSCc1cccc(CSCC(=O)Nc2ccccc2)n1)Nc1ccccc1 tested on human ether-à-go-go-related gene (hERG) potassium channel (human, UniProt Q12809)?
Result block: -59.7

Query block: I'm curious: which hERG current change (%, negative = inhibition) at 1uM was measured for O=C(CNS(=O)(=O)c1cccc(C(F)(F)F)c1)Nc1ccccc1F tested on human ether-à-go-go-related gene (hERG) potassium channel (human, UniProt Q12809)?
Result block: -2.49

Query block: I'm curious: which hERG current change (%, negative = inhibition) at 1uM was measured for Cc1ccc(C(C)NC(=O)CSc2ccc(S(=O)(=O)N3CCOCC3)cn2)cc1C (centres unmarked) tested on human ether-à-go-go-related gene (hERG) potassium channel (human, UniProt Q12809)?
Result block: 5.8

Query block: I'm curious: which hERG current change (%, negative = inhibition) at 1uM was measured for CC1CCCCC1NC(=O)COC(=O)c1ccc(N(C)C)cc1 (centres unmarked) tested on human ether-à-go-go-related gene (hERG) potassium channel (human, UniProt Q12809)?
Result block: 9.14

Query block: I'm curious: which hERG current change (%, negative = inhibition) at 1uM was measured for CCC(c1nnnn1CS(=O)(=O)c1ccc(C)cc1)N1CCC(C(N)=O)CC1.Cl (centres unmarked) tested on human ether-à-go-go-related gene (hERG) potassium channel (human, UniProt Q12809)?
Result block: -3.7

Query block: I'm curious: which hERG current change (%, negative = inhibition) at 1uM was measured for Cn1c(C(=O)c2ccccc2[N+](=O)[O-])nc2ccccc21 tested on human ether-à-go-go-related gene (hERG) potassium channel (human, UniProt Q12809)?
Result block: -9.27

Query block: I'm curious: which hERG current change (%, negative = inhibition) at 1uM was measured for CCN(C(=O)c1ccc2c(OC)n(CC)nc2c1)c1ccc(OC)cc1 tested on human ether-à-go-go-related gene (hERG) potassium channel (human, UniProt Q12809)?
Result block: 0.888

Query block: I'm curious: which hERG current change (%, negative = inhibition) at 1uM was measured for C/C(N)=C(/C#N)C(=O)CSc1nc2ccccc2[nH]1 tested on human ether-à-go-go-related gene (hERG) potassium channel (human, UniProt Q12809)?
Result block: 5.05

Query block: I'm curious: which hERG current change (%, negative = inhibition) at 1uM was measured for Cc1cccc(C)c1N(CC(=O)N1CCCC1)S(C)(=O)=O tested on human ether-à-go-go-related gene (hERG) potassium channel (human, UniProt Q12809)?
Result block: 16.2

Query block: I'm curious: which hERG current change (%, negative = inhibition) at 1uM was measured for Brc1ccc2c(c1)C(OC1CN3CCC1CC3)c1ccccc1CS2.O=C(O)/C=C\C(=O)O (centres unmarked) tested on human ether-à-go-go-related gene (hERG) potassium channel (human, UniProt Q12809)?
Result block: -27.6

Query block: I'm curious: which hERG current change (%, negative = inhibition) at 1uM was measured for Fc1ccc(N/N=C/c2ccc(N3CCOCC3)cc2)c(F)c1 tested on human ether-à-go-go-related gene (hERG) potassium channel (human, UniProt Q12809)?
Result block: 9.29

Query block: I'm curious: which hERG current change (%, negative = inhibition) at 1uM was measured for Cc1ccc(C(=O)NCCCNCCCNC(=O)c2ccc(C)nc2)cn1 tested on human ether-à-go-go-related gene (hERG) potassium channel (human, UniProt Q12809)?
Result block: -10.3

Query block: I'm curious: which hERG current change (%, negative = inhibition) at 1uM was measured for O=c1c2ccccc2nnn1CSc1nnc2ccccn12 tested on human ether-à-go-go-related gene (hERG) potassium channel (human, UniProt Q12809)?
Result block: 6.78
